# Test system: IL-8
# protocol.notes: Inhibition of IL-8 production by stimulated human peripheral blood leukocytes in vitro
# Assay type: cell-based
# assay.context: Homo sapiens, Leukocyte, 50 μM; zymosan-stimulated PBL; read-out: Percentage of inhibition of IL-8 production
assay.readout: inhibition at 50 µM (%)

>>> test_result("CC[C@H]1OC(=O)[C@H](C)[C@@H](O[C@H]2C[C@@](C)(OC)[C@@H](OC(=O)CCN3CC(C)CC(C)C3)[C@H](C)O2)[C@H](C)[C@@H](O[C@@H]2O[C@H](C)C[C@H](N(C)C)[C@H]2O)[C@](C)(OC)C[C@@H](C)C(=O)N[C@H](C)[C@@H](O)[C@]1(C)O (stereo partly shown) [Example 37]")
0
>>> test_result("CC[C@H]1OC(=O)[C@H](C)[C@@H](O[C@H]2C[C@@](C)(OC)[C@@H](OC(=O)CCN(CC)CC)[C@H](C)O2)[C@H](C)[C@@H](O[C@@H]2O[C@H](C)C[C@H](N(C)C)[C@H]2O)[C@](C)(OC)C[C@@H](C)NC(=O)[C@H](C)[C@@H](O)[C@]1(C)O [Example 3]")
16
>>> test_result("CC[C@H]1OC(=O)[C@H](C)[C@@H](O[C@H]2C[C@@](C)(OC)[C@@H](OCCCN(CC)CC)[C@H](C)O2)[C@H](C)[C@@H](O[C@@H]2O[C@H](C)C[C@H](N(C)C)[C@H]2O)[C@](C)(O)C[C@@H](C)CN(C)[C@H](C)[C@@H](O)[C@]1(C)O [Example 96]")
40
>>> test_result("CC[C@H]1OC(=O)[C@H](C)[C@@H](O[C@H]2C[C@@](C)(OC)C(OC(=O)CCN(CC)CC)[C@H](C)O2)[C@H](C)[C@@H](O[C@@H]2O[C@H](C)C[C@H](NC)[C@H]2O)[C@](C)(O)C[C@@H](C)CN(C)[C@H](C)[C@@H](O)[C@]1(C)O (stereo partly shown) [Example 90]")
88
>>> test_result("CC[C@H]1OC(=O)[C@H](C)C(O[C@H]2C[C@@](C)(OC)[C@@H](OC(=O)CCN(CC)CC)[C@H](C)O2)[C@H](C)[C@@H](O[C@@H]2O[C@H](C)C[C@H](N(C)C)[C@H]2O)[C@](C)(OC)C[C@@H](C)C(=O)[C@H](C)[C@H](O)[C@]1(C)O (stereo partly shown) [Example 49]")
54
>>> test_result("CC[C@H]1OC(=O)[C@H](C)[C@@H](O[C@H]2C[C@@](C)(OC)[C@@H](OC(=O)CCN(CC)CC)[C@H](C)O2)[C@H](C)[C@@H](O[C@@H]2O[C@H](C)C[C@H](N(C)C)[C@H]2O)[C@](C)(O)C[C@@H](C)CN(C)[C@H](C)[C@@H](O)[C@]1(C)O [Example 48]")
90
>>> test_result("CC[C@H]1OC(=O)[C@H](C)[C@@H](O[C@H]2C[C@@](C)(OC)[C@@H](OC(=O)CCN(C)CCO)[C@H](C)O2)[C@H](C)[C@@H](O[C@@H]2O[C@H](C)C[C@H](N(C)C)[C@H]2O)[C@](C)(OC)C[C@@H](C)C(=O)N[C@H](C)[C@@H](O)[C@]1(C)O [Example 15]")
91

Data provenance is patent US8080529B2.
